Reported Replicate 3 quizalofop-P activity is given for each of the following molecules.
test-summary: high-throughput enzyme assay with crude bacterial extract
Type: biochemical
experimental-parameters: relative to wild-type RdpA
// print number alone

- molecule: "MON-HT53: engineered oxygenase protein, amino acid sequence SEQ ID NO:7 (protein) MHAALSPLSQRFERIAVQPLTGVLGAEITGVDLREPLSDSTWNEILDAFHTYQVIYFPGQAITNEQHIAFSRRFGPVDPVPLLKSIEGYPEVQMIRREANESGRVIGDDWHSDSTFLDAPPAAVVMRAIDVPEHGGDTGFLSMYTAYDALSDGLKKLISGLNVVHSATRVFGSLYQAQNRRFSNTSVKVMDVDAGDRETVHPLVVTHPGSGRKGLYVNQVYCQRIEGMSEKESEPLLSFLFAHATKPEFTCRVRWKKDQVLVWDNLCTMHYAINDYHGQTRILHRTTVGGVRPAR"
  Replicate 3 quizalofop-P activity: 106.13
- molecule: "MON-HT52: engineered oxygenase protein, amino acid sequence SEQ ID NO:4 (protein) MHAALSPLSQRFERIAVQPLTGVLGAEITGVDLREPLDDSTWNEILDAFHTYQVIYFPGQAITNEQQIAFSRRFGPVDPVPLLKSIEGYPEVQMIRREANESGRVIGDDWHTDSTFLDAPPAAVVMRAIDVPEHGGDTGFLSMYTAYDALSDGLKKLISGLNVVHSATRVFGSLYQAQNRRFSNTSVKVMDVDAGDRETVHPLVVTHPGSGRKGLYVNQVYCQRIEGMSEKESEPLLSFLFAHATKPEFTCRVRWKKDQVLVWDNLCTMHYAINDYHGQTRILHRTTVGGVRPAR"
  Replicate 3 quizalofop-P activity: 89.75
- molecule: "MON-HT51: engineered oxygenase protein, amino acid sequence SEQ ID NO:1 (protein) MHAALSPLSQRFERIAVQPLTGVLGAEITGVDLREPLSDSTWNEILDAFHTYQVIYFPGQAITNEQHIAFSRRFGPVDPVPLLKSIEGYPEVQMIRREANESGRVIGDDWHTDSSFLDAPPAAVVMRAIDVPEHGGDTGFLSMYTAYDALSDGLKKLISGLNVVHSATRVFGSLYQAQNRRFSNTSVKVMDVADGDRETVHPLVVTHPGSGRKGLYVNQVYCQRIEGMSEKESEPLLSFLFAHATKPEFTCRVRWKKDQVLVWDNLCTMHYAINDYHGQTRILHRTTVGGVRPAR"
  Replicate 3 quizalofop-P activity: 110.17

Now examine the next entry.
stdin: // returns reported Replicate 3 quizalofop-P activity for input MON-HT54: engineered oxygenase protein, amino acid sequence SEQ ID NO:9 (protein) MHAALSPLSQRFERIAVQPLTGVLGAEITGVDLREPLDDSTWNEILDAFHTYQVIYFPGQAITNEQHIAFSRRFGPVDPVPLLKSIEGYPEVQMIRREANESGRVLGDDWHTDSTFLDAPPAAVVMRAIDVPEHGGDTGFLSMYTAYDALSDGLKKLISGLNVVHSATRVFGSLYQAQNRRFSNTSVKVMDVADGDRETVHPLVVTHPGSGRKGLYVNQVYCQRIEGMSEKESEPLLSFLFAHATKPEFTCRVRWKKDQVVVWDNLCTMHYAINDYHGQTRILHRTTVGGVRPAR
stdout: 130.56
